Give measured IC50 for each item. Keep answers brief.
- testSystem: Bcl-2-related protein A1 (Mus musculus) (UniProt Q07440)
- Sequence (Q07440 whole entry, looked up): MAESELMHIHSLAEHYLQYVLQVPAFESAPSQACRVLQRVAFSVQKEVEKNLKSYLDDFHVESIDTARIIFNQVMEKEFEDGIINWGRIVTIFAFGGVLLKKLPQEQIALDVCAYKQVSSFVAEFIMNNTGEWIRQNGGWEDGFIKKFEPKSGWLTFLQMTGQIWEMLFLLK
- methodNotes: off-target activity on mouse Bfl-1 – biochemical, set 3, counter-screen for UBC13 polyubiquitination inhibitor project, SAR follow-up (AID 602206)
- recordedConditions: Bfl-1 / peptide binding counterscreen, TR-FRET
The source made the active and inactive calls. How the calls were made is not given here.

API: value(readout=IC50, system=Bcl-2-related protein A1 (Mus musculus) (UniProt Q07440)) for record O=C(Nc1cc(F)ccc1F)C1CCN(c2ncnc3c2nc2n3CCCCC2)CC1
> 100 µM (inactive)

Next: Cc1cc(Cl)ccc1NC(=O)C1CCN(c2ncnc3c2nc2n3CCCCC2)CC1
> 100 µM (inactive)

Next: c1nc(N2CCC(N3CCCCC3)CC2)c2nc3n(c2n1)CCCC3
> 100 µM (inactive)

Next: COc1ccc(Cl)cc1NC(=O)C1CCN(c2ncnc3c2nc2n3CCCCC2)CC1
> 100 µM (inactive)

Next: O=C(CCCCCN1C(=O)c2ccccc2C1=O)NCCc1ccccc1
> 100 µM (inactive)
